Data provenance is patent US20180291096A1.

measured.on: T1, recombinant human IL-23 (hrIL-23), produced at Centocor (human, UniProt P29460 23-328)
T1 sequence 1: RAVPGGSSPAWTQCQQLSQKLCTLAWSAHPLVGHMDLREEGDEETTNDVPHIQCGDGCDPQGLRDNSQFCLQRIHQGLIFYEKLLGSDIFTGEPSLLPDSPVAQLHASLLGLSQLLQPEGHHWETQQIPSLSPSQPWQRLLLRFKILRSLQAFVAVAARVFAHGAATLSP
T1 sequence 2: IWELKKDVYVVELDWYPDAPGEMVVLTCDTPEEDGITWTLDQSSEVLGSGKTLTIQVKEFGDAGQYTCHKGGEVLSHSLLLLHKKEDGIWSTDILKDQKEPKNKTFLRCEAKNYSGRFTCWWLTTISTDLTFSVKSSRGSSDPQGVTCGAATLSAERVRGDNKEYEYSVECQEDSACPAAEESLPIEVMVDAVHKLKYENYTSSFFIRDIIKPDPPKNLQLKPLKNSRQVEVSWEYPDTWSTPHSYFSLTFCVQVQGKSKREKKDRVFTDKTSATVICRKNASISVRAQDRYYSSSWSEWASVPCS
experiment.notes: cell-based or functional assay
Each entry below carries its recorded IC50, inhibition of IL-17 production.
Field: numeric (µg/mL). Do not append units.

See these solved cases before continuing.
Briefly, IC50, inhibition of IL-17 production measured for MOR05041 mAb (antibody, human IgG1, V domains shown) VH: QVELVQSGAEVKKPGESLKISCKGSGYSFSNYWIGWVRQMPGKGLEWMGIISPTGSVTWYSPSFQGQVTISADKSISTAYLQWSSLKASDTAMYYCARWYYKPFDVWGQGTLVTVSS VL: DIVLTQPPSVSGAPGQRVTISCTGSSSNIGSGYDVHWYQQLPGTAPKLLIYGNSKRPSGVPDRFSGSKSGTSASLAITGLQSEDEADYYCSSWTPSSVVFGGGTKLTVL : 0.00301

# IC50, inhibition of IL-17 production (binder: MOR05047 mAb (antibody, human IgG1, V domains shown) VH: QVELVESGGGLVQPGGSLRLSCAASGFTFSSFGMSWVRQAPGKGLEWVSNIEHKYLGYATSYAASVKGRFTISRDNSKNTLYLQMNSLRAEDTAVYYCARYWGTPYLMQFDNWGQGTLVTVSS VL: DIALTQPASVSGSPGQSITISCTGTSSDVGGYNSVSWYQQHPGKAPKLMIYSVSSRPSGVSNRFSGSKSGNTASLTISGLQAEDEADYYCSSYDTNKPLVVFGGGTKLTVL ) is 0.0234

Next:
Data point: MOR05055 mAb (antibody, human IgG1, V domains shown) VH: QVELVESGGGLVQPGGSLRLSCAASGFTFSSFGMSWVRQAPGKGLEWVSNIEHKYLGYATVYAASVKGRFTISRDNSKNTLYLQMNSLRAEDTAVYYCARYWGTPYLMQFDNWGQGTLVTVSS VL: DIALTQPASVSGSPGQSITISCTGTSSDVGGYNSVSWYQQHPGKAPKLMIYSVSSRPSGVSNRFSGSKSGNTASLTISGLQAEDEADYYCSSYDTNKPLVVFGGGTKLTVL ; IC50, inhibition of IL-17 production = 0.0916
